# Assay Explanation: Intrinsic clearance in liver microsomes, rat
# Type: in vitro ADME
# Condition Context: rat, liver microsomes, pH 7.4, rat liver microsomes, Method 1; read-out: Half-Life (T1/2) (min), Rat
Value Kind: half-life at 1 μM

For orientation, consider the following solved cases.
[[record]]
compound = "CNC(=O)c1[nH]c(C(=O)N[C@H]2CC[C@H](O)CC2)cc1OC(C)c1ccccc1 (single isomer, unassigned) [Example 97]"
recorded_measurement = "> 60 min"

[[record]]
compound = "CNC(=O)c1[nH]c(C(=O)NC2CC2)cc1O[C@@H](C)c1ccccc1F [Example 59]"
recorded_measurement = "> 60 min"


Data request: For the compound CNC(=O)c1[nH]c(C(=O)N[C@H]2CC[C@H](O)CC2)cc1OC(C)c1ccc(Cl)cc1F (single isomer, unassigned) [Example 38] , give its measured half-life at 1 μM value.
Data returned: > 60 min

Attribution: patent US20250263370A1
